Assign TGI to each entry below.
# Test system: MDA-MB-231 breast
# measurement-description: NCI tumour cell line growth inhibition, 48 h
Where a SMILES comes first, the peptide text is derived from it. [ ]: non-standard residue; d: D form. The star is where a group is joined. ξ: configuration not given here. ξF = NC(Cc1ccccc1)C(=O)O; Cbz = O=C(OCc1ccccc1)*; Aib = CC(C)(N)C(=O)O

Would you please look over these solved cases?
molecule: COc1cc([C@H]2c3cc4c(cc3O[C@@]3(O)COC(=O)[C@@H]23)OCO4)cc(OC)c1OC
result-type: TGI
result: > 100 µM
//
molecule: Brc1ccc(N=NN2CCCCC2)cc1
result-type: TGI
result: > 100 µM
//
molecule: CCOC(=O)c1c2c(n3ccc(NC(=O)CCN4CCCC4)cc13)C(=O)c1ncccc1C2=O
result-type: TGI
result: 3.83 µM

// each listed molecule needs a value for TGI
1. CC(C)(NC(=O)OCc1ccccc1)C(=O)NC(Cc1ccccc1)C(=O)O (stereo unspecified) (Cbz-[Aib]-[ξF]-OH)
2. N#CCC1COc2ccccc2O1 (stereo unspecified)
3. Cc1ncc(CN=Cc2ccc(Cl)cc2)c(N)n1
4. COc1cc2c(cc1OC)C(=O)/C(=C/c1cccc(OCC(=O)c3ccccc3)c1)C2
5. Cc1ccc(CNc2c3ccccc3nc3ccccc23)cc1
6. Cc1cc(-c2ncc(CC(=O)Nc3ccc(-c4cnccn4)cn3)cc2C)ccn1
7. CN(C)c1ccc(/C=N/Nc2nc3ccccc3c(=O)n2-c2ccccc2)cc1
8. CC(=O)O/C=C\OC1CCCC1(c1ccccc1)c1ccccc1 (stereo unspecified)

> 100 µM
> 10 µM
> 100 µM
> 100 µM
4.52 µM
> 100 µM
> 100 µM
5.51 µM

* * *

# Test system: HOP-92 NSCLC
# measurement-description: NCI tumour cell line growth inhibition, 48 h; in the data active = GI50 below about 0.43 µM; inactive = the rest
Outcome (select one): 1 = active, 0 = inactive

Answered examples (4):
molecule: COc1cc(/C(C#N)=C/c2ccc3c(c2OC)OCO3)cc2c1OCO2
class-assignment: 1
--
molecule: COc1cc(C2CC(c3ccc(C)cc3)=NN2C=O)ccc1Oc1ccnc2cc(Cl)ccc12 (stereo not given)
class-assignment: 0
--
molecule: Cc1ccc(-[n+]2c3cc(N)c(C)cc3nc3cc(C)c(Nc4ccccc4)cc32)cc1
class-assignment: 1
--
molecule: CCOc1cc2ncc(C#N)c(Nc3ccc(OCc4cccc(F)c4)c(Cl)c3)c2cc1NC(=O)CC1CCSS1 (stereo not given)
class-assignment: 0

What is the recorded call for this molecule in the test? `COc1ccc2nc(N/N=C(\C)c3ccccn3)cc(C)c2c1`
1

* * *

Please respond with reported TGI for every item in the list.
# Tested on: A498 renal
# measurement-description: NCI tumour cell line growth inhibition, 48 h
Give bare numbers, in µM.

molecule: C=C1CC2(OC1=O)C(=O)N(CCCCCCCN1C(=O)C3(CC(=C)C(=O)O3)c3ccccc31)c1ccccc12 (centres undefined)
result-type: TGI
quantitative-readout: 13.1

molecule: COC(=O)C12Oc3ccc(-c4ccc5c(c4O)C(=O)C4=CCC(C)C(O)C4(C(=O)OC)O5)c(O)c3C(=O)C1=CCC(C)C2O (centres undefined)
result-type: TGI
quantitative-readout: 3.54

molecule: CNC(=O)c1cc(OC2CCC(NC(=O)Nc3ccc(Cl)c(C(F)(F)F)c3)CC2)ccn1 (centres undefined)
result-type: TGI
quantitative-readout: 22.1

Okay, next one:
State its TGI for this molecule: `COc1cc2c3cc1Oc1c(O)c(OC)cc4c1[C@H](Cc1ccc(cc1)Oc1cc(ccc1O)C[C@H]3N(C)CC2)N(C)CC4`
31.5

* * *

# System: EKVX NSCLC
# measurement-description: NCI tumour cell line growth inhibition, 48 h
result-type: TGI

compound: C=CCn1c2c(c3ccccc3c1=O)C(=O)c1ccccc1-2
result-type: TGI
result: > 100 µM
//
compound: CC(=O)OC[C@H]1O[C@@H](O[C@H]2[C@H](OC(C)=O)C=CO[C@@H]2COC(C)=O)C(OC(C)=O)[C@H]2OC(C)(C)O[C@H]21 (stereo not given in full)
result-type: TGI
result: > 100 µM

# batch size: 3; output TGI per entry
1. CN1CC2=C(OC(N)=C(C#N)C2c2cccs2)/C(=C/c2cccs2)C1 (stereo not given)
2. Cc1cc2c(cc1Cl)Sc1nnc(Nc3ccccc3)n1S2(=O)=O
3. Cn1ccnc1Sc1ccc(/C=N/NC(=O)c2ccccc2O)cc1[N+](=O)[O-]

1. > 60.2 µM
2. 34.3 µM
3. > 100 µM

* * *

# Test system: HCT-116 colon
# measurement-description: NCI tumour cell line growth inhibition, 48 h
Provide the reported TGI of each item.

compound: COC1C(O)CC(OC2C(C)OC(Oc3cc(O)c4c(O)c5c(cc4c3)C[C@@H]([C@H](OC)C(=O)[C@@H](O)[C@@H](C)O)[C@H](OC3CC(OC4CC(OC6CC(C)(O)C(O)C(C)O6)C(O)C(C)O4)C(O)C(C)O3)C5=O)CC2OC(C)=O)OC1C (stereo not given in full)
TGI: > 100 µM

Required: TGI, one value per compound below.
1. COc1ccc2c3c1OC1CC(O)C=CC31CCN(C)C2 (stereo not given)
2. Cc1cc(-c2ncc(CC(=O)Nc3ccc(-c4cnccn4)cn3)cc2C)ccn1

["> 150 µM", "> 100 µM"]

Please look at the items below and tell me TGI for each one, in order.
1. O=c1oc2cc(OS(=O)(=O)c3ccc(F)cc3)ccc2c2c1CCCCC2
2. CN(C)C(=S)N/N=C\C=N/NC(=S)N(C)C

> 100 µM
> 100 µM

* * *

# Tested on: UACC-62 melanoma
# measurement-description: NCI tumour cell line growth inhibition, 48 h
result-type: TGI

Known results for compounds:
compound: COc1cc(OC)c2c(O)cc(CC(C)O)cc2c1 (stereo unspecified)
TGI: > 100 µM

compound: CN(C)C(=S)N/N=C\C=N/NC(=S)N(C)C
TGI: 22 µM

compound: CCN(CC)CCOc1nc2ccc(OC)cc2c2c1-c1ccc(OC)cc1C2=O
TGI: 7.65 µM

compound: COc1ccc(-c2nn3ncccc3c2-c2ccnc(Nc3ccc(Cl)c(C(F)(F)F)c3)n2)cc1
TGI: > 25 µM

compound: COc1nc(N(C)O)nc(N(C)O)n1
TGI: 9.92 µM

compound: CCOc1cc2ncc(C#N)c(Nc3ccc(OCc4cccc(F)c4)c(Cl)c3)c2cc1NC(=O)CC1CCSS1 (stereo unspecified)
TGI: > 25 µM

compound: COc1ccc(-c2nc3sc(C)cn3c2/C=C/C(=O)c2cc(OC)c(OC)c(OC)c2)cc1
TGI: > 100 µM

compound: Cc1nc2ccc(S(=O)(=O)Nc3ccc(Cl)cc3)cc2c(=O)n1NC(=O)CNc1ccc(Cl)cc1
TGI: > 100 µM

compound: Brc1ccc(N=NN2CCCCC2)cc1
TGI: > 100 µM

compound: CCN(CC)Cc1nc2sc3c(c2c(=O)n1-c1ccccc1)CCCC3
TGI: 30.4 µM

# batch size: 5; output TGI per entry
1. Cc1cn(C2CC(n3cc(Cn4cc(F)c(=O)[nH]c4=O)nn3)C(CO)O2)c(=O)[nH]c1=O (stereo unspecified)
2. CC(=O)C(C(C)=O)=C1CCCC(O)O1 (stereo unspecified)
3. CCC1C(=O)C[C@H]2[C@@H]3C(O)CC4=CC(=O)CC[C@]4(C)[C@H]3CC[C@]12C (stereo partly specified)
4. O=C1C(Br)=CC2([N+](=O)[O-])CCNc3c(O)c4c5c(c3C2=C1Br)=NCCC=5C=N4 (stereo unspecified)
5. COC(=O)Cc1ccc2c(c1)Sc1ccc(CC(=O)OC)cc1N2C

1. > 100 µM
2. > 100 µM
3. > 50 µM
4. 3.14 µM
5. > 100 µM

Dear colleague, could you send me TGI for each of the items below? Thanks.
1. COc1cc(-c2nc3cc(F)ccc3s2)ccc1O
2. COc1cc2c(cc1OC)C(=O)/C(=C/c1cccc(OCC(=O)c3ccccc3)c1)C2

> 100 µM
90.8 µM

* * *

For each entry below, report its TGI value.
# System: OVCAR-8 ovarian
# measurement-description: NCI tumour cell line growth inhibition, 48 h
Give bare numbers, in µM.

compound: O=C(c1ccccc1)C(c1ccccc1)C1(O)C(=O)Nc2c(Cl)cc(Cl)cc21 (stereo not given)
TGI [µM]: 32.9
--
compound: Cc1ccc(CNc2c3ccccc3nc3ccccc23)cc1
TGI [µM]: 10.5
--
compound: CCC[CH2][Sn-]([CH2]CCC)([CH2]CCC)[O]c1cc(Cl)c(Cl)cc1Cl
TGI [µM]: 0.557
--
compound: CC(C)C[C@H](NC(=O)[C@H](Cc1cccc2ccccc12)NC(=O)N1CCOCC1)B(O)O
TGI [µM]: 0.0626

Please find the next compound below.
Quote TGI reported for `COc1ccc2nc(N/N=C(\C)c3ccccn3)cc(C)c2c1` please.
2.53
